- Tested on: UACC-257 melanoma
- Experimental Details: NCI-60 one-dose screen, 48 h (100 = growth as untreated, 0 = no growth, -100 = all killed)
- Condition: 10 µM unless noted
About 83,000 compounds went through this panel and 20% of them were active in at least one assay; those are over-represented in the sample as a whole.
Measurement Type: growth (%)
Field: numeric (%). Do not append units.

Enquiry: // query growth value for entry `C=C(C)[C@@H]1CC[C@]2(C(=O)O)CC[C@]3(C)[C@H](CC[C@@H]4[C@@]5(C)C[C@@H](CC#Cc6ccc(Cl)cc6)C(=O)C(C)(C)[C@@H]5CC[C@]43C)[C@@H]12`
Return: 75.6

Enquiry: Entry to check: `c1ccc(-c2cn3ccnc3c(-c3ccc4c(c3)ncn4C3CCCCC3)n2)cc1`
Return: 110

Enquiry: And what about the molecule `CC(=O)Oc1ccc(O)cc1` ?
Return: 83

Enquiry: Lookup `Cc1c(O)c(=O)ccn1-c1nc2ccccc2s1`
Return: 90

---

- System: IGROV1 ovarian
- Experimental Details: NCI-60 one-dose screen, 48 h (100 = growth as untreated, 0 = no growth, -100 = all killed)
- Condition: 10 µM unless noted
About 83,000 compounds went through this panel and 20% of them were active in at least one assay; those are over-represented in the sample as a whole.
Measurement Type: growth (%)
Respond with the bare value in %.

Enquiry: Which growth value is on record for N#Cc1ccc(C2C3=C(CCCC3=O)OC3=C2C(=O)c2ccccc2C3=O)cc1 (stereo not given) ?
Return: 40

Enquiry: Subsequent entry: `CC1=C(CCCOC(=O)NCCCl)C2=C(C)C3(CC3)[C@@](C)(O)C(=O)C2=C1`
Return: 4.17

Enquiry: Please answer likewise for `C=C(C)[C@@H]1CC[C@]2(C(=O)N=C=S)CC[C@]3(C)[C@H](CC[C@@H]4[C@@]5(C)CCC(=O)C(C)(C)[C@@H]5CC[C@]43C)[C@@H]12`
Return: 66.2

Enquiry: Similarly, `c1ccc(Sc2ncccn2)nc1` ?
Return: 108

Enquiry: Queued: `N#Cc1c(-c2ccc(F)cc2)nc(N=Nc2c(O)[nH]c3ccc(Cl)cc23)nc1N1CCOCC1`
Return: 29.3

---

Task for the reader: assign each of the following compounds its reported growth.
- Test system: RXF 393 renal
- Experimental Details: NCI-60 one-dose screen, 48 h (100 = growth as untreated, 0 = no growth, -100 = all killed)
- Condition: 10 µM unless noted
About 83,000 compounds went through this panel and 20% of them were active in at least one assay; those are over-represented in the sample as a whole.
Give the value, in units of %, as a plain number.

Enquiry: Given the entry `COC(=O)CCc1cc(O)c2c(c1)[C@@H](C(=O)OC)[C@H](c1ccc(O)c(O)c1)O2` , report its measured growth.
Return: 88.5

Enquiry: Further, for `CCCCn1c2cc(OCc3cn(-c4ccc(Cl)cc4)nn3)ccc2c2ccnc(C)c21` ?
Return: 47.6

Enquiry: What about this compound? `O=C(/C(=C\c1c(-c2ccccc2)[nH]c2ccccc12)S(=O)(=O)c1ccccc1)c1ccccc1`
Return: 46.7

Enquiry: Field entry: `CNS(=O)(=O)c1cccc(-c2ccc3c4c(n(C)c(=O)c3c2)-c2ccccc2C4=O)c1`
Return: 96.5

Enquiry: Please do the same for N#CC1(C#N)C2=C(CCCC2)NC(c2c(F)cccc2Cl)C1(C#N)C#N (stereo not given) as well.
Return: 78.2

Enquiry: Would you kindly repeat that for `O=C(Nc1cc(Br)ccn1)c1cc2cc(Nc3nc(-c4ccccc4)nc4ccccc34)ccc2oc1=O` ?
Return: 133

Enquiry: Input Nc1ccc(C2=NN(C(=O)c3cc(-c4ccc(Cl)cc4)nc4ccccc34)C(c3ccccc3)C2)cc1 (stereo not given)
Return: -3.58

Enquiry: Follow-up item: `CSc1nc(-c2ccco2)c2c(N)[nH]nc2n1`
Return: 118

Enquiry: Note, next up: `CCO/C=N/S(=O)(=O)c1cc2c(cc1Cl)NC=NS2(=O)=O`
Return: 103

Enquiry: Cool, now `COc1ccc2oc(=O)cc(-c3c(C#N)c(N)n4nc(N)c(C#N)c4c3C#N)c2c1`
Return: 100

Enquiry: Again, but for `O=C(CCCC(=O)Nc1ccc(-n2nnc3cc(Cl)c(Cl)cc32)cc1)Nc1ccc(-n2nnc3cc(Cl)c(Cl)cc32)cc1`
Return: 48.1

Enquiry: Another compound to look at: `N#Cc1c(-c2ccc(F)cc2)c(C#N)c2c(C#N)c(N)nn2c1N`
Return: 84.4

Enquiry: Repeat with `COc1cccc(C(=O)OCCn2nc3c4c(cccc42)C(=O)c2ccccc2-3)c1O`
Return: 53

Enquiry: Would you kindly repeat that for `COc1cc(/C=C/C(=O)c2ccc(NC(=O)CSc3nnc(-c4cc(OC)c(OC)c(OC)c4)n3-c3ccccc3)cc2)cc(OC)c1OC` ?
Return: -55.4

Enquiry: Next up: `Sc1cccc2cccnc12`
Return: 13.4

Enquiry: Now consider `O=c1[nH]c(-c2cccc(F)c2)cc2cc(F)ccc12` .
Return: 9.93

Enquiry: Also, COc1cc(C2=NN(C(C)=O)C(c3cccc(Nc4ccnc5cc(C(F)(F)F)ccc45)c3)C2)cc(OC)c1OC (stereo not given) please.
Return: 55.3

Enquiry: Then Cc1nc2sc(C(=O)Nc3cccc(Cl)c3C)c(N)c2cc1C(C)O (stereo not given) ?
Return: 3.16

Enquiry: Here is the next compound: `CCOC(=O)C1CCN(S(=O)(=O)/N=C2/NC(=O)NC2=C(Cl)Cl)CC1`
Return: 83.8

Enquiry: Follow-up entry: `O=C(Nc1cc(Nc2ncccc2-c2ncnc3nc[nH]c23)ccc1F)c1cc(C(F)(F)F)cc(C(F)(F)F)c1`
Return: -63.4
